target-system: neuraminidase of the ancestral B/Lee/40 strain (influenza B virus B/Lee/40, UniProt P03474 1-466)
Sequence (P03474 whole entry): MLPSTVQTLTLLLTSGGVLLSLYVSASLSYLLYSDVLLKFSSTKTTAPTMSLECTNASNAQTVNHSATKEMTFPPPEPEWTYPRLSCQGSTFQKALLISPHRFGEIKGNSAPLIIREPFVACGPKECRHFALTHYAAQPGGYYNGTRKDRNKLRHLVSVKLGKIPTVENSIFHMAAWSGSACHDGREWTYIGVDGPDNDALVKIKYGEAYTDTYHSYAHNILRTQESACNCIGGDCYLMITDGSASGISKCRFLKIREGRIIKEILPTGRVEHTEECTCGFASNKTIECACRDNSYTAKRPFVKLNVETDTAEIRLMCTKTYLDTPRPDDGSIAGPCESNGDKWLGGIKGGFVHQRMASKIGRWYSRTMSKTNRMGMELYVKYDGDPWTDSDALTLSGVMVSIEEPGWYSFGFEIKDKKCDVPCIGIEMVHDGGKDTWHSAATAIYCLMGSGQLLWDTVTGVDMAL
assay-remarks: ELISA on purified whole virus
readout-label: binding result

Study these solved cases before continuing.
State the recorded binding result for this entry: monoclonal antibody 1F2 (hybridoma-produced, murine IgG2a) (antibody, V domains shown) VH: QVHLQQSGPEVARPGASVKLSCKASGYTFTDYYLNWVKQRPRQGLEWIGQIHPGSTNTYYNEKFKGKATLTADKSSSTAYMQLSSLTFEDSAVYFCAISLGDGYYVYAMVCWGQGTAVTVSS VL: DIVMTQSQKFMSTSVGDRVSVTCKASQNVVTNVVWYQQKPGQSPKPLIYSASYRYSGVPDRFTGSGSGTDFTLTISNVQSEDLAEYCCQQYHSYPFTFGSGTKLEVK
binds

Check monoclonal antibody 3G1 (hybridoma-produced, murine IgG2a) (antibody, V domains shown) VH: QVQLQQSGAELMKPGASVKISCKATGYKFTSYWIGWVKQRPGHGLEWCGEIFPGSGSINYNEKFKGKATFTADTSSNTAYLQLTSLTSEDSAVYYCARGEDYYGSSYGAMDYWGQGTSLTVSS VL: DVQITQSPSYLAASPGETITINCRASKSISKYVAWYQEKPGRTNKVLIYSGSILSFGNPSRFSGSGSGTDFTLTISSLEPEDFAMYYCQQHNEYPWTFGGGTKLEIK too.
binds

Now the binder monoclonal antibody 1F4 (hybridoma-produced, murine IgG2a) (antibody, V domains shown) VH: QVHLQQSGSELRSPGSSVKLSCKDFDSEVFPIVYMRWIRQKPGHGFEWIGDILPSFGRTIYGEKFEDKATLDADTVSNTAYLELNSLTSEDSAIYYCARGDHGNWLAYWGQGTLVTVSA VL: DIVMTQSHKFMSTSVGDRVTITCKASQDVSTNVAWYQQKPGQSPKLLIYWASTRHTGVPNRFTGIISGTDYTLTISSVQAEDRALYYCQQHYSAPWTFGGGTKLEIK
binds

For monoclonal antibody 4F11 (hybridoma-produced, murine IgG2b) (antibody, V domains shown) VH: DVKLVESGGDLVKPGGSLKLSCAASGFTFSAYSMSWVRQTPERRLEWVATINTGGSFTYYPDSVKGRFTISRDNAKNTLYLQMSSLKSEDTAMYFCTRVSDYGNSAYFPYWGQGTLVIVFA VL: QVVLTQSPALISASPGEKVTMTCSASSNVNYMSWYQQRPRSSPKPWIYLTSKLASGVPPRFSGSGSGTSYSLTISSMEAEDVATYYCQQWSSDPQTFGGGTKVEIK then?
binds

Further cases:
Look up binding result: monoclonal antibody 4B2 (hybridoma-produced, murine IgG2a) (antibody, V domains shown) VH: QIQLVQSGPELKKPGETVKISCKASGFTFTDYPMHWVKQAPGKSLKWMGWINTETEEPTYSDDFKGRSPLSLETSASTTYLQINNLKNEDTSTYFCVRSGYYYGSTYAWFGYWGQGTLVTVSA VL: DVVMTQIPLSLPVSLGDQASISCRSSQSLIHTNGDTFLHWYLQKPGQSPKLLIYKVSNRFSGVPDRFTGGGSGTDFTLKISRVEAEDLGIYFCSQSALFPYTFGGGTNLEIK
binds
